- TESTED TARGET: reuptake of serotonine (5-HT) in synaptosomes (Rattus norvegicus)
- Construct: in synaptosomes as described in WO 97/16451; from tissue
- Sequence (P31652 whole entry): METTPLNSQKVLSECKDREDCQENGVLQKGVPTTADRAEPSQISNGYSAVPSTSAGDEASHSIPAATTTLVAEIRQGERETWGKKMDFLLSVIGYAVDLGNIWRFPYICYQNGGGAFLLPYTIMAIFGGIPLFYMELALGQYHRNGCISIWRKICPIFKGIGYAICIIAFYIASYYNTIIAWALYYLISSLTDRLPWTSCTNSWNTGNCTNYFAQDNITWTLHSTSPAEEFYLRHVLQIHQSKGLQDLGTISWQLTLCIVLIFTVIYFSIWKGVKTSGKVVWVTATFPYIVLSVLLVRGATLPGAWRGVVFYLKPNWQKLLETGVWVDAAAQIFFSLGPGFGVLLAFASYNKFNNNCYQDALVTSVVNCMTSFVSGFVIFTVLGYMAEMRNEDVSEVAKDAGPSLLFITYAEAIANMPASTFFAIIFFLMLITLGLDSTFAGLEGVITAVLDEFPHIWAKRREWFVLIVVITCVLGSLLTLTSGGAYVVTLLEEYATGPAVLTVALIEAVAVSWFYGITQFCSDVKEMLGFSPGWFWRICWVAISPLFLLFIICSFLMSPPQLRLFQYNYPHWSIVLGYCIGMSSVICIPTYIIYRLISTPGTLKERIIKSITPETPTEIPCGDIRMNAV
- PROTOCOL NOTES: Inhibition of serotonine (5-HT) reuptake in synaptosomes
- Type: biochemical
MEASURED PROPERTY: IC50 (nM)
Give the value, in units of nM, as a plain number.

// IC50 lookup, compound = Brc1cccc(C2=CCC3(CCNCC3)CC2)n1 [2nd last compound of method A] , result: 18

* * *

- TESTED TARGET: reuptake of noradrenaline (NA) in synaptosomes (Rattus norvegicus)
- Construct: in synaptosomes as described in WO 97/16451; from tissue
- Sequence (Q9WTR4 1-597): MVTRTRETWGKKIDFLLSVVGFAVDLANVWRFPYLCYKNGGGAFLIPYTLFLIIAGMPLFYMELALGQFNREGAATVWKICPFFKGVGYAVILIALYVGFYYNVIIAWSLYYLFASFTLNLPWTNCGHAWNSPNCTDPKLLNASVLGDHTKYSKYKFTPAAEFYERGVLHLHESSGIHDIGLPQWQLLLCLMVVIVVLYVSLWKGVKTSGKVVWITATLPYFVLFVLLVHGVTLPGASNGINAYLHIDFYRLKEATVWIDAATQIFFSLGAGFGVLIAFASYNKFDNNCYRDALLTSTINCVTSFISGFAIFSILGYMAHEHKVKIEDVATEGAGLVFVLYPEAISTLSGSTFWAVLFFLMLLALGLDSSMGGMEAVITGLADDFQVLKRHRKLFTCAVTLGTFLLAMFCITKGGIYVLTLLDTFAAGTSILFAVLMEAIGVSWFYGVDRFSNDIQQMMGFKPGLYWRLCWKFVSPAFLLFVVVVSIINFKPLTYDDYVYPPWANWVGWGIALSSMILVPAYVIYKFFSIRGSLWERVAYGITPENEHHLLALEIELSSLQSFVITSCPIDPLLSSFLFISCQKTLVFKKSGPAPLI
- PROTOCOL NOTES: Inhibition of noradrenaline (NA) reuptake in synaptosomes
- Type: biochemical
- CONDITIONS USED: 3H-NA, read-out: NA-uptake IC50
Consider the following compounds and their measured pIC50 readings.
pIC50 is a log-scale quantity: -log10 of the concentration expressed in molar.

| INPUT SMILES | TESTED TARGET | pIC50 |
| --- | --- | --- |
| Brc1cccc(C2=CCC3(CCNCC3)CC2)n1 | reuptake of noradrenaline (NA) in synaptosomes (Rattus norvegicus) | 6.00 |

// pIC50 lookup, compound = C1=C(c2cc3ccccc3s2)CCC2(C1)CCNCC2 , result: 6.24

// pIC50 lookup, compound = COc1ccc2cc(C3=CCC4(CCNCC4)CC3)ccc2c1 , result: 6.92
